Assay: Plasma pharmacokinetics after intraperitoneal injection in mice
Assay type: in vivo
Conditions: mouse, female mice, 5 mg/kg IP
measure: half-life (min)
Express the result in min but write the number alone.

# input Recorded half-life for Cc1cc(C)c(Oc2ccc3cnccc3n2)c(-c2ccccc2)c1 [Example 71] , please?
# output 31.2

* * *

Biological target: REV-ERBα (Homo sapiens (Human), UniProt P20393)
Sequence (P20393 281-614): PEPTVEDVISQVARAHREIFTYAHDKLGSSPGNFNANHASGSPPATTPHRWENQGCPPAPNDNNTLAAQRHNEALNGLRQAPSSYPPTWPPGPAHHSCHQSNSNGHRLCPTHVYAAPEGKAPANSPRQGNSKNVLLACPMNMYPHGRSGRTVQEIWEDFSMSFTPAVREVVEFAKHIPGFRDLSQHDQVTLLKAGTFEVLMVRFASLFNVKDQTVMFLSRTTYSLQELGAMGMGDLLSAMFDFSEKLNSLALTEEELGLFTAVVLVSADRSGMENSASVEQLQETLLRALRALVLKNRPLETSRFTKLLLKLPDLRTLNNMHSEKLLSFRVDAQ
Experiment: FRET assay for REV-ERB ligands (REV-ERBα LBD / NCoR ID2 peptide interaction)
Details: TR-FRET, His-tagged REV-ERBα LBD, fluorescein NCoR ID2 peptide; read-out: RevErbα Inhibition IC50
Exercise: state measured IC50 for each of the molecules provided.

# input Please look up its IC50: Cn1cnc2ccc(Oc3ccccc3-c3ccccc3)nc21 [Example 3]
# output 250 to 1000 nM

# input Also Cn1cnc2ccc(Oc3ccccc3-c3cccc(F)c3)nc21 [Example 5] , if possible.
# output ≤ 250 nM

# input // same read-out, input: Cc1nn(C)c2cnc(Oc3ccccc3-c3ccccc3)nc12 [Example 21]
# output > 1000 nM

# input Can you check c1ccc(C2CCCCC2)c(Oc2ccc3cnccc3n2)c1 [Example 49] next?
# output 250 to 1000 nM

# input Please do the same for FC(F)(F)c1ccccc1Oc1ccc2cnccc2n1 [Example 46] as well.
# output 250 to 1000 nM

# input Now consider Cn1ncc2cnc(Oc3ccccc3-c3cccnc3)nc21 [Example 10] and answer again.
# output ≤ 250 nM

# input Try the molecule c1ccc2cc(Oc3ccc4ccncc4n3)ccc2c1 [Example 70, 2-(naphthalen-2-yloxy)-1,7-naphthyridine]
# output ≤ 250 nM

# input Follow-up item: CNc1cccc(-c2ccccc2Oc2ncc3ccn(C)c3n2)c1 [Example 17]
# output ≤ 250 nM

# input # repeat for c1ccc(C2CCCCC2)c(Oc2ccc3ccncc3n2)c1 [Example 48]
# output ≤ 250 nM

# input // same read-out, input: c1ccc(-c2ccccc2Oc2ncc3cnccc3n2)cc1 [Example 22]
# output ≤ 250 nM

* * *

Assay: Plasma pharmacokinetics after intraperitoneal injection in mice
Format: in vivo
Details: mouse, Table 4, female mice, 5 mg/kg IP
Method: Example B: Pharmacokinetics of Selected Compounds Mice were injected intraperitoneally with (5 mg/kg) of the compound of Example 71 or Example 78 and plasma samples were taken at intervals of […], 0.25 hr, 0.5 hr. 1.0 hr, 3.0 hr, and 6.0 hr post-administration in order to analyze the pharmacokinetic profile of these compounds. […]
measure: AUC(0-t) (ng·h/mL)
Report as a plain number; the unit ng·h/mL is understood.

# input I have this compound here, COc1ccc(-c2ccc(C(F)(F)F)cc2Oc2ccc3cnccc3n2)cc1 [Example 78] , and I need its recorded AUC(0-t).
# output 137

* * *

Assay: Plasma pharmacokinetics after intraperitoneal injection in mice
Format: in vivo
Conditions: mouse, Table 4, male mice, 5 mg/kg IP, read-out: Vz/F
measure: Vd/F (L/kg)
# value in L/kg; strip the unit string

# input Entry "COc1ccc(-c2ccc(C(F)(F)F)cc2Oc2ccc3cnccc3n2)cc1" : reported Vd/F = ?
# output 11.3

* * *

Assay: Plasma pharmacokinetics after intraperitoneal injection in mice
Assay type: in vivo
Settings: mouse, Table 4, male mice, 5 mg/kg IP
measure: Cmax (ng/mL)
Could you give me the number in ng/mL? Just the number is fine.

# input What value of measured Cmax is listed for COc1ccc(-c2ccc(C(F)(F)F)cc2Oc2ccc3cnccc3n2)cc1 [Example 78] ?
# output 330

* * *

Test: Plasma pharmacokinetics after intraperitoneal injection in mice
Type: in vivo
Conditions: mouse, female mice, 5 mg/kg IP
measure: AUC(0-t)
In your response, the unit should come after the numeric value.

# input Would you mind telling me what AUC(0-t) value was observed for Cc1cc(C)c(Oc2ccc3cnccc3n2)c(-c2ccccc2)c1 [Example 71] ?
# output 169 ng·h/mL

* * *

Target: REV-ERBα (Homo sapiens (Human), UniProt P20393)
Assay: FRET assay for REV-ERB ligands (REV-ERBα LBD / NCoR ID2 peptide interaction)
Conditions: TR-FRET, His-tagged REV-ERBα LBD, fluorescein NCoR ID2 peptide; read-out: RevErbα Inhibition IC50
Kindly state IC50 for each of the entries shown.

# input Return IC50 measured with REV-ERBα (Homo sapiens (Human), UniProt P20393) given this molecule: Cn1cnc2ccc(Oc3ccccc3-c3cccnc3)nc21 [Example 6]
# output ≤ 250 nM

# input Consider next the molecule Cn1ncc2ccc(Oc3ccccc3-c3cccc(F)c3)nc21 [Example 14] in the same way.
# output 250 to 1000 nM

# input What do you get for c1ccc(-c2ccccc2Oc2ccc3cnccc3n2)nc1 [Example 45] ?
# output > 1000 nM

# input Now try c1ccc(-c2ccccc2Oc2ccc3ncccc3n2)cc1 [Example 68] .
# output 250 to 1000 nM

# input Also check c1ccc2c(Oc3ccc4cnccc4n3)cccc2c1 [Example 56, 2-(naphthalen-1-yloxy)-1,6-naphthyridine]
# output > 1000 nM

# input Same lookup for c1ccc(-c2ccccc2Oc2ccc3ccncc3n2)cc1 [Example 59] , please.
# output ≤ 250 nM

# input Here is the next molecule: Cc1cccc(-c2ccccc2Oc2ccc3cnn(C)c3n2)c1 [Example 13]
# output > 1000 nM

# input Try COc1ccc2c(C(F)(F)F)cc(SCC(=O)NCCc3ccc(F)cc3)nc2c1 [Example 62] next.
# output ≤ 250 nM

# input Proceed to c1cc2ccc(OC3CCCCC3)nc2cn1 [Example 57, 2-(cyclohexyloxy)-1,7-naphthyridine]
# output > 1000 nM

# input How about this molecule: c1ccc(-c2ccccc2Oc2ccc3cnccc3n2)cc1 [Example 24, 2-(biphenyl-2-yloxy)-1,6-naphthyridine]
# output ≤ 250 nM

# input Note, next up: COc1ccc2c(C(F)(F)F)cc(Oc3ccccc3-c3ccccn3)nc2c1 [Example 36]
# output ≤ 250 nM

# input Entry c1ccc2c(Oc3ccc4ccncc4n3)cccc2c1 [Example 54, 2-(naphthalen-1-yloxy)-1,7-naphthyridine] please
# output ≤ 250 nM
